Study Target: CXCR4 as expressed on breast tumor cells (MCF-7, MDA MB-231) (human) (UniProt P61073)
Test Name: homologous competition against ^125I I-TAC on MCF-7 cells, medium alone
Observable: IC50

Req: What value of IC50 has been reported for the following binder? human I-TAC (ligand, UniProt O14625 22-94, looked up, 125I label where used as the radioligand) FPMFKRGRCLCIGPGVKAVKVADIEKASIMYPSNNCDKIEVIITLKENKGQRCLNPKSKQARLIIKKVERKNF
Resp: 1 nM
